- system.tested: human GRP receptor (human, UniProt P30550 1-384)
- Sequence (P30550 whole entry): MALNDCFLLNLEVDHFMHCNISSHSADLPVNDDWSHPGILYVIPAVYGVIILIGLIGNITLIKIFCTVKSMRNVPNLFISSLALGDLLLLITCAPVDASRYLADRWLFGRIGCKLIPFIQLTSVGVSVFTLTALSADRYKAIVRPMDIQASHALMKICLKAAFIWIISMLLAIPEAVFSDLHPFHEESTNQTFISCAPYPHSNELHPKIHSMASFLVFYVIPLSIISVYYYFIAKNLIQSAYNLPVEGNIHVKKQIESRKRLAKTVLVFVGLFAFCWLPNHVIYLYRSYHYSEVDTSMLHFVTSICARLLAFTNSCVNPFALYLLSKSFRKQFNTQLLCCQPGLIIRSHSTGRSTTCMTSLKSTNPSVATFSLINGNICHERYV
- measurement.notes: cell-based or functional assay
Starred links: 1 amine or outer side, 2 acyl side, 3 side chain; linkers in the order of their positions; H or OH if unused. Non-standard residues stand in square brackets, D forms with d. No end group written: not given here. *: point of attachment. C20 diacid = O=C(O)CCCCCCCCCCCCCCCCCCC(=O)*; C18 diacid = O=C(O)CCCCCCCCCCCCCCCCC(=O)*; γGlu = O=C(O)[C@H](CCC(=O)[*:2])N[*:1]; 2Nal = N[C@@H](Cc1ccc2ccccc2c1)C(=O)O; Cha = N[C@@H](CC1CCCCC1)C(=O)O; Nle = CCCC[C@H](N)C(=O)O; ACBA = not defined here; AEEA = NCCOCCOCC(=O)O; Sar = CNCC(=O)O
Each entry below lists one item and its recorded hIP1 GRPR EC50 value.
metric: hIP1 GRPR EC50 (nM)

{"columns": ["binder", "value.modifier", "reported.value"],
 "data": [
  ["{C18 diacid}-[γGlu][AEEA][AEEA]GNH[2Nal]AV[dA]HL[Nle][Sar]-NH2 (SMILES CCCC[C@H](NC(=O)[C@H](CC(C)C)NC(=O)[C@H](Cc1c[nH]cn1)NC(=O)[C@@H](C)NC(=O)[C@@H](NC(=O)[C@H](C)NC(=O)[C@H](Cc1ccc2ccccc2c1)NC(=O)[C@H](Cc1c[nH]cn1)NC(=O)[C@H](CC(N)=O)NC(=O)CNC(=O)COCCOCCNC(=O)COCCOCCNC(=O)CC[C@H](NC(=O)CCCCCCCCCCCCCCCCC(=O)O)C(=O)O)C(C)C)C(=O)N(C)CC(N)=O) [Peptide 99]", ">", 10000],
  ["{C18 diacid}-[γGlu][AEEA][AEEA]GRHWAV[dA]HL[Nle] [Peptide 166]", "=", 248],
  ["{C20 diacid}-[γGlu]E[AEEA][AEEA]GQHWAV[ACBA]HL[Nle]-NH2 (reading uncertain) [Peptide 273]", "=", 12.3],
  ["{C18 diacid}-[γGlu][AEEA][AEEA]GAHWAV[dA]HL[Cha]-NH2 (SMILES CC(C)C[C@H](NC(=O)[C@H](Cc1c[nH]cn1)NC(=O)[C@@H](C)NC(=O)[C@@H](NC(=O)[C@H](C)NC(=O)[C@H](Cc1c[nH]c2ccccc12)NC(=O)[C@H](Cc1c[nH]cn1)NC(=O)[C@H](C)NC(=O)CNC(=O)COCCOCCNC(=O)COCCOCCNC(=O)CC[C@H](NC(=O)CCCCCCCCCCCCCCCCC(=O)O)C(=O)O)C(C)C)C(=O)N[C@@H](CC1CCCCC1)C(N)=O) [Peptide 120]", "=", 443]
]}
